B1: Triacylglycerol hydrolase DDHD2, residues 389 to 447; numbered along this chain, O94830 (parent)
chain: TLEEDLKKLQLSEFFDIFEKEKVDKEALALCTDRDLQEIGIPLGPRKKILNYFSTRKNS

variants of: B1; assay: abundance fitness (aPCA) (normalised: wild type 0, dead -1); higher = more abundant; growth selection in yeast, the domain comes from the species named; settings: Homo sapiens
Entries and their abundance fitness

Solved entries:
K22C :: -0.083
G44D :: 0.342
K20H :: -0.212
S12P :: -0.301
A29I :: 0.012

Request: Which measured abundance fitness value corresponds to E3A ?
Result: -0.142

Request: Continue with D33H
Result: -0.283

Request: Let us now turn to S12H
Result: 0.052

Request: Also F14E , if possible.
Result: -0.592

Request: Okay, and E26L ?
Result: -0.383

Request: // repeat for E13Y and report
Result: -0.012

The origin of these recorded values is the Human Domainome abundance scans (Beltran et al. 2025).
